molecular target: human recombinant chemokine CCR8 receptor (Homo sapiens); construct: purchased Euroscreen ES-136-M; host or cells: CHO-K1 cells (transfected), membrane preparation; assay: CCL1 SPA binding assay; details: membranes from CHO-K1 cells transfected with human CCR8; 125I CCL1 displacement, SPA beads; read-out: IC50
Sequence (P51685 whole entry): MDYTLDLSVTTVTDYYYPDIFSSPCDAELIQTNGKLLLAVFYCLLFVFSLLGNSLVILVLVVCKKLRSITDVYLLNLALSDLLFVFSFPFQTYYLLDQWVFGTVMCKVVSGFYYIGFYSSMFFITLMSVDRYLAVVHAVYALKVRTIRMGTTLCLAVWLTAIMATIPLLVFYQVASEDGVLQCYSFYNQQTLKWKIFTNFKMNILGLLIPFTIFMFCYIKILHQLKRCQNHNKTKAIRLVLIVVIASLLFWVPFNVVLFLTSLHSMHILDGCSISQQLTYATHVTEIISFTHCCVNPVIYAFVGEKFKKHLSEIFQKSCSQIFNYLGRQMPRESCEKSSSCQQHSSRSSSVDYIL
pIC50: −log10 of the molar value. Where a name gives a salt, the structure may show the parent alone.
measured_endpoint: pIC50

Example entries and their recorded answers appear below.
CC1(C)Cc2cccc(CN3CCC4(CC3)CCN(C(=O)c3ccc5cc[nH]c5c3)CC4)c2O1 [Example 68, Acetate]; 8.10
CC1(C)Oc2cccc(CN3CCC4(CC3)CCN(C(=O)c3ccc(N)[nH]c3=O)CC4)c2O1 [Example 133]; 7.08
CC1(C)COc2cccc(CN3CCC4(CC3)CCN(C(=O)c3ccncc3CC(N)=O)CC4)c2O1 [Example 143, Ditrifluoroacetate]; 7.49
CC1(C)Oc2cccc(CN3CCC4(CC3)CCN(C(=O)c3ncccc3N)CC4)c2O1 [Example 92]; 7.64
CC1(C)COc2c(CN3CCC4(CC3)CCN(C(=O)c3ccncc3)CC4)cccc2O1 [Example 110, Trifluoroacetate]; 7.28

I. CC1(C)Cc2c(CN3CCC4(CC3)CN(C(=O)c3ccnc(N)n3)C4)cccc2O1 [Example 157]
II. COC(=O)Cc1ccccc1C(=O)N1CCC2(CCN(Cc3cccc4c3OC(C)(C)C4)CC2)CC1 [Example 5]
III. CC1(C)Cc2c(CN3CCC4(CC3)CCN(C(=O)c3ccncc3CC(N)=O)CC4)cccc2O1 [Example 159]
IV. CC1(C)Cc2cccc(CN3CCC4(CC3)CCN(C(=O)c3cccc5c3NC(=O)C5=O)CC4)c2O1 [Example 63, Trifluoroacetate]
Please give the order of these compounds when sorted by pIC50, largest value leading. Answer by naming the labels in the order asked.
II, I, III, IV
(II: 8.05, I: 7.30, III: 7.06, IV: 6.84)

A. COC(=O)Cc1ccccc1C(=O)N1CCC2(CCN(Cc3cccc4c3OC(C)(C)C4)CC2)CC1 [Example 181]
B. CC1(C)Cc2cccc(CN3CCC4(CC3)CCN(C(=O)c3ccno3)CC4)c2O1 [Example 31, Trifluoroacetate]
C. CC1(C)Cc2cccc(CN3CCC4(CC3)CCN(C(=O)c3ccccc3NC(=O)C3CCCO3)CC4)c2O1 (stereo not drawn) [Example 49]
D. CC1(C)COc2c(CN3CCC4(CC3)CCN(C(=O)c3ccc(N)cn3)CC4)cccc2O1 [Example 173, Trifluoroacetate]
Hey, quick one: sort these by pIC50, low to high? Answer by naming the labels in the order asked.
A, C, D, B
(A: 7.14, C: 7.42, D: 7.68, B: 8.00)

a. CC1(C)C=Cc2cccc(CN3CCC4(CC3)CN(C(=O)c3ccncc3)C4)c2O1 [Example 139]
b. CC1(C)Cc2c(CN3CCC4(CC3)CCN(C(=O)c3ccnc(N)n3)CC4)cccc2O1 [Example 124]
# return whichever of a and b has the smaller pIC50 Kindly state the label of the option you pick.
a
(a: 7.15, b: 7.92)

A. CC1(C)Cc2cccc(CN3CCC4(CC3)CCN(C(=O)c3ccccc3CC(=O)N3CCC[C@@H]3C(N)=O)CC4)c2O1 [Example 18]
B. CC1(C)Cc2cccc(CN3CCC4(CC3)CCN(C(=O)CCc3nc(-c5ccccn5)no3)CC4)c2O1 [Example 111]
C. CC1(C)Cc2cccc(CN3CCC4(CC3)CCN(C(=O)c3ccncc3)CC4)c2O1 [Example 1, Trifluoroacetate]
Hey, quick one: sort these by pIC50, low to high? Answer by naming the labels in the order asked.
B, A, C
